Origin of values: ChEMBL document CHEMBL1208755

# key: entry, value: MIC
Tested on: Mycobacterium tuberculosis
Assay: Antimicrobial activity aagainst Mycobacterium tuberculosis ATCC 14468 in log phase by agar dilution method
Assay type: functional

{"smiles data": "C/C(=N\\NC(=O)c1ccc([N+](=O)[O-])o1)c1ccc(C)cc1", "result unit": "µM", "inequality symbol": "=", "MIC": 10.9}
{"smiles data": "Cc1ccc(/C=N/NC(=O)c2ccc([N+](=O)[O-])o2)cc1", "result unit": "µM", "inequality symbol": "=", "MIC": 11.4}
{"smiles data": "C/C(=N\\NC(=O)c1ccc([N+](=O)[O-])o1)c1ccccc1O", "result unit": "µM", "inequality symbol": ">", "MIC": 43.2}
{"smiles data": "O=C(N/N=C/c1ccc([N+](=O)[O-])cc1)c1ccc([N+](=O)[O-])o1", "result unit": "µM", "inequality symbol": "=", "MIC": 20.6}
{"smiles data": "O=C(N/N=C/c1ccc(Br)cc1)c1ccc([N+](=O)[O-])o1", "result unit": "µM", "inequality symbol": "=", "MIC": 18.5}
{"smiles data": "O=C(N/N=C/c1ccc(O)cc1)c1ccc([N+](=O)[O-])o1", "result unit": "µM", "inequality symbol": ">", "MIC": 45.4}
{"smiles data": "C/C(=N\\NC(=O)c1ccc([N+](=O)[O-])o1)c1ccc(F)cc1", "result unit": "µM", "inequality symbol": "=", "MIC": 5.35}
{"smiles data": "O=C(N/N=C/c1ccccc1)c1ccc([N+](=O)[O-])o1", "result unit": "µM", "inequality symbol": "=", "MIC": 48.2}
{"smiles data": "C/C(=N\\NC(=O)c1ccc([N+](=O)[O-])o1)c1ccccc1", "result unit": "µM", "inequality symbol": "=", "MIC": 11.4}
{"smiles data": "O=C(N/N=C/c1cccc(Br)c1)c1ccc([N+](=O)[O-])o1", "result unit": "µM", "inequality symbol": "=", "MIC": 18.5}
{"smiles data": "O=C(N/N=C/c1ccc(Cl)cc1)c1ccc([N+](=O)[O-])o1", "result unit": "µM", "inequality symbol": "=", "MIC": 21.3}
